Every entry's value here was drawn from ChEMBL document CHEMBL2040770.

# ASSAY_METHOD_TEXT: AUC (0 to infinity) in dog at 10 mg/kg, po
# Type: ADME, organism-based, Canis lupus familiaris
# Parameters: time infinity, dose 10 mg/kg, route oral
# RUN_CONDITIONS: plasma
METRIC_NAME: AUC(0-inf) (µM·h)
One number for each entry, in µM·h.

## Task Fill in AUC(0-inf) for record COc1ccc2c(c1)C=C1Cn3c-2c(C2CCCCC2)c2ccc(cc23)C(=O)NS(=O)(=O)N(C)CCOCCN(C)C1=O [TMC-647055]
## Result 25.8

###

# ASSAY_METHOD_TEXT: Cmax in Sprague-Dawley rat at 10 mg/kg, po
# Type: ADME, organism-based
# Design: dose 10 mg/kg, route oral
# RUN_CONDITIONS: in vivo
METRIC_NAME: Cmax (ng/mL)
Give bare numbers, in ng/mL.

Worked examples, 4 compounds total:
- COc1ccc2c(c1)C=C1Cn3c-2c(C2CCCCC2)c2ccc(cc23)C(=O)NS(=O)(=O)N(C)CCN2CCN(CC2)C1=O: 6
- COc1ccc2c(c1)C=C1Cn3c-2c(C2CCCCC2)c2ccc(cc23)C(=O)NS(=O)(=O)N(C)CCCCCNC1=O: 30
- COc1ccc2c(c1)C=C1Cn3c-2c(C2CCCCC2)c2ccc(cc23)C(=O)NS(=O)(=O)N(C)CCCCN(C)C1=O: 800
- CN1CCOCCN(C)S(=O)(=O)NC(=O)c2ccc3c(C4CCCCC4)c4n(c3c2)CC(=Cc2cc(F)ccc2-4)C1=O: 272

## Task Fill in Cmax for record COc1ccc2c(c1)C=C1Cn3c-2c(C2CCCCC2)c2ccc(cc23)C(=O)NS(=O)(=O)N(C)CCOCCN(C)C1=O [TMC-647055]
## Result 440
